Quick reference: switch fluorescence ratio of the listed items.
# Tested on: ATP;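 note: ATP exposure 15 min at 22 °C before imaging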
# experimentalProtocol: switch fluorescence ratio, 500 uM ATP over buffer (Cy3 cluster intensity, sum of 5 cycles each) (fold (ratio)); higher = stronger signal-on switching upon ATP binding; sequences stand for … in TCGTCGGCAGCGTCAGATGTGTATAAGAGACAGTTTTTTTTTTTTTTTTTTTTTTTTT…TC
# conditionDescription: aptamer strand: ATP DNA aptamer (quencher-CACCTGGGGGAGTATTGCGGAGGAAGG + anchor), 100 nM annealed; ATP concentration: 500 uM
measuredQuantity: switch fluorescence ratio

1. AAGGAAGACT: 0.974
2. GCAGGTATCA: 1.02
3. CATGAGTTGG: 0.966
4. CGGTTATACT: 1.25
5. TATTTGGTTT: 1
6. GTTGGCACGA: 1.04
7. GAAGCATTTT: 1.07
8. TCAATTGTAA: 1.05
9. GCGCTTTTTT: 0.99
10. CGATGGTGGG: 0.987
11. TGGGGGATAT: 1.05
12. CGGATTCCCC: 1.06
13. AAGTATAGC: 1.02
14. ATCTTTAGTA: 1
15. ATTGGTGTAG: 0.972
16. CCCTGAGGAT: 1.01
17. GGGTTATATT: 0.988
18. AGGCGAAACG: 0.97
19. AGTTTAGGAC: 0.985
20. AAAGGGGTAA: 0.982
21. CATCGATGGT: 1
22. AGTTTTTTTG: 0.99
23. ATTGCGCAAG: 1.01
24. TCTAGGGCGC: 1.01
25. CATGTCTGCT: 0.978
26. AGTATGGTGT: 0.937
27. GGGGCCGTGC: 1.01
28. TTCGGTTGGA: 0.984
29. ATGAAGGGGT: 0.959
30. GATGAAATGT: 0.994
31. TCCTGTATGT: 0.998
32. AGGGTAAAGG: 0.989
33. TGGGCAAGGT: 1.05
34. GGTTTAAGGT: 1.01
35. GATTGTTCGT: 1.03
36. AGGGTGGAGC: 1.07
37. GGGGGCTAGG: 1.02
38. TGGAATAATT: 1
39. GGCTTTGAGT: 0.987
40. GGGCCATTGG: 1
41. TGAAGATATT: 0.993
42. CGCCTTTACC: 1.18
43. CTAAAACAGG: 1.02
44. GAGTTGGGTT: 1.01
45. AATTGTTGTT: 0.998
46. GGTGTTTATC: 1
47. CTGCAACGGA: 1.13
48. GAATAGCATA: 1.05
49. TACTTAGA: 1.04
50. GAATTGTATT: 0.993
51. TGATTTAATA: 0.984
52. CTCGGGCACG: 0.989
53. CGCAGCCAGG: 3.33
54. CTAGATGGGT: 1.01
55. GGACTTTAAT: 1
56. TTTGCCTTTG: 0.999
57. ACAAGGGTC: 0.964
58. ACTTTAATGA: 1.07
59. TGAAGAAAGG: 0.981
60. TTTTTCATAA: 0.999
61. ATATGGGGTG: 1.05
62. CCGTCATCTG: 1.04
63. GTTAGATTGT: 0.973
64. ATTAGATTTT: 1.02
65. TACGGTTGGC: 0.989
66. TTTCACAGTA: 1.03
67. GTAGGTAAGC: 1.03
68. TGGGGATGGG: 0.996
69. TCGAGTATGT: 0.983
70. CAGGGCGCCT: 1.01
71. ACGGTCAGGG: 1.05
72. TTTTTTCATT: 1.02
73. GCGTTTCCTC: 1.08
74. AACGTTAATT: 1.03
75. TAAAAGAGGG: 0.956
76. CGGGGTTTGC: 0.997
77. AAAAGTGTTG: 0.948
78. AATATTAGGC: 1.03
79. ATGATGCGTG: 0.981
80. GGGGTCTGGG: 0.966
